assay-system: TASK-3 WT channel (Cavia porcellus, UniProt Q9JL58)
Sequence (Q9JL58 whole entry): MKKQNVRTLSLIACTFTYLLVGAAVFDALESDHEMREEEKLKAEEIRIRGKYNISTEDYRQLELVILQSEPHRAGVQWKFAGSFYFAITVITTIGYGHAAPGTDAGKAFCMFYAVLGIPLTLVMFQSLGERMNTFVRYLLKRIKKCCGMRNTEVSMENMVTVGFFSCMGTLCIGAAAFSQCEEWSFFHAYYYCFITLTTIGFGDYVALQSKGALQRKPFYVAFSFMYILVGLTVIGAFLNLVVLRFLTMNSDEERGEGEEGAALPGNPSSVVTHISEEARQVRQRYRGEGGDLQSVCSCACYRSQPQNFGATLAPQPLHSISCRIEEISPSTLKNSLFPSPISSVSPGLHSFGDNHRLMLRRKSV
parameter: IC50 (mM)
Your answer should be a plain number; it is taken to be in mM.

[ask] Lab request: please report IC50 under test system TASK-3 WT channel (Cavia porcellus, UniProt Q9JL58) for CC[N+](CC)(CC)CC
[reply] 12.5
